Measured target: human CLDN18.2 (human)
Method notes: cell-based or functional assay
Let's look at some binders and their measured CDC EC50, NIH-3T3-CLDN18.2 target cells.
Property label: CDC EC50, NIH-3T3-CLDN18.2 target cells (nM)

1. IMAB362 (antibody, human IgG1, kappa, V domains shown, Positive control, prepared in-house; also called Claudiximab; TMAB362 [sic]) VH: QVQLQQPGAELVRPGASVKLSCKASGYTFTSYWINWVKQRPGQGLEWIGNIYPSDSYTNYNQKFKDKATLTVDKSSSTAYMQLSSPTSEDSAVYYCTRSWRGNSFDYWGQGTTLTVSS VL: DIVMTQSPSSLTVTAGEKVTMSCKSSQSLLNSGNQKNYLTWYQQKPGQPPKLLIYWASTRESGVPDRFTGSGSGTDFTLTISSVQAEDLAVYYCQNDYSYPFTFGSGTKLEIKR ... 24.4
2. humanized antibody hz40F6-1.1 (antibody, human IgG1, kappa, V domains shown) VH: QVQLVESGGGVVQPGRSLRLSCAASGFTLTSYGVYWVRQAPGKGLEWVAVVWAGGNTNYADSVKGRFTISKDNSKSTLYLQMNSLRAEDTAVYYCARDRGRLLAMDYWGQGTLVTVSS VL: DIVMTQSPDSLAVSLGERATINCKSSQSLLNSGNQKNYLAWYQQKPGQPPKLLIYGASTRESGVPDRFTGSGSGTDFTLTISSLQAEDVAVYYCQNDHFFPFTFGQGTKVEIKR ... 1.47
3. humanized antibody hz40F6-2.1 (antibody, human IgG1, kappa, V domains shown) VH: QVQLVESGGGVVQPGRSLRLSCAASGFTLTSYGVYWVRQAPGKGLEWVAVVWAGGNTNYADSVKGRFTISKDNSKSTLYLQMNSLRAEDTAVYYCARDRGRLLAMDYWGQGTLVTVSS VL: DIVMTQSPDSLAVSLGERATINCKSSQSLLNSGNQKNYLAWYQQKPGQPPKLLIYGASTRESGVPDRFSGSGSGTDFTLTISSLQAEDVAVYYCQNDYFFPFTFGQGTKVEIKR ... 3.8
4. humanized antibody hz40F6-1.2 (antibody, human IgG1, kappa, V domains shown) VH: QVQLVESGGGVVQPGRSLRLSCAASGFTLTSYGVYWVRQAPGKGLEWVAVVWAGGNTNYNSALMSRFTISKDNSKSTLYLQMNSLRAEDTAVYYCARDRGRLLAMDYWGQGTLVTVSS VL: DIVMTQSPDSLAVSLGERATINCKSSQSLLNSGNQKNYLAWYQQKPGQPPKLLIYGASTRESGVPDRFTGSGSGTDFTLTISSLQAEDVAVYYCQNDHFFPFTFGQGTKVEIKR ... 0.54
5. humanized antibody hz40F6-2.2 (antibody, human IgG1, kappa, V domains shown) VH: QVQLVESGGGVVQPGRSLRLSCAASGFTLTSYGVYWVRQAPGKGLEWVAVVWAGGNTNYNSALMSRFTISKDNSKSTLYLQMNSLRAEDTAVYYCARDRGRLLAMDYWGQGTLVTVSS VL: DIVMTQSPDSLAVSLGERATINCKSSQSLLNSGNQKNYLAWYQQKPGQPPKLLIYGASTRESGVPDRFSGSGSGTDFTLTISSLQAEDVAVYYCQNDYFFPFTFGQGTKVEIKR ... 0.53
